I'd be grateful if you could share measured EC50 for these entries.
- Target: T1, cynomolgus monkey CD3 on the surface of expanded monkey T cells (cynomolgus monkey, UniProt Q95LI5 22-198; Q95LI8 22-171; Q95LI7 23-181)
- T1 construct: whole, on cells; Endogenous CD3 within the TCR-CD3 complex on T cells expanded from cynomolgus monkey PBMC
- T1 sequence (Q95LI5 22-198, chain 1 of 3): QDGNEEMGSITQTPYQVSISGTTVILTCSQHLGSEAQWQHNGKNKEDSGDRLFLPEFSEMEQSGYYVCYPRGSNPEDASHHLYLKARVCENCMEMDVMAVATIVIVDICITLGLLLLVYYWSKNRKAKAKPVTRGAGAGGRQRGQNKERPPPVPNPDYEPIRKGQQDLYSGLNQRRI
- T1 sequence (Q95LI8 22-171, chain 2 of 3): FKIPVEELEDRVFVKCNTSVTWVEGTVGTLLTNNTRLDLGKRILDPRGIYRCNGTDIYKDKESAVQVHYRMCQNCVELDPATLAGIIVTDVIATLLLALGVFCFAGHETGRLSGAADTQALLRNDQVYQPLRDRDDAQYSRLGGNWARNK
- T1 sequence (Q95LI7 23-181, chain 3 of 3): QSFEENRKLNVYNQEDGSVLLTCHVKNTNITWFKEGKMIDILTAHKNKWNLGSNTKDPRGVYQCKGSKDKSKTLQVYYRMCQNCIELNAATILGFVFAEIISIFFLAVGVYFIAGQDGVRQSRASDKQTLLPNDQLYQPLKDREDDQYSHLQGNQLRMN
- Experiment summary: FACS, expanded monkey T cells

Some binders with recorded EC50:
Binder: 6-44.5 human-murine chimeric antibody (antibody, human IgG1, kappa, V domains shown, Human IgG1 chimera) VH: EVQLQQSGPELVKPGASVKMSCKASGHTFTSHIMHWVKQKPGQGLEWIGYINPNNDRTEYSEKFKGKATLTSDKSSSTAYMELSSLTSEDSAVYYCAGEAYYSNSLYAMDYWGQGTSVTVSS VL: DIVMSQSPSSLAVSAGEKVTMSCKSSQSLFNSRTRKNYLAWYQQKPGQSPELLIYWASTRESGVPVRFTGSGSGTDFTLTISSVQAEDLAVYYCKQSYYLRTFGGGTKLEVKR
Readout type: EC50
Value: 420 pM
--
Binder: 5-40.21 human-murine chimeric antibody (antibody, human IgG1, kappa, V domains shown, Human IgG1 chimera) VH: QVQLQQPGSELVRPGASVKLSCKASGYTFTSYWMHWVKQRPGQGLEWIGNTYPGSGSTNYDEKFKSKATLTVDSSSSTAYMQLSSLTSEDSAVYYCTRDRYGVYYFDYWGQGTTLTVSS VL: DIVMSQSPSSLAVSAGEKVTMSCKSSQSLLNSRTRKNYLAWYQQKPGQSPKLLIYWASTRESGVPDRFSGSGSGTDFTLTISSVQAEDLAVYYCTQSYNLRTFGGGTKLEIKR
Readout type: EC50
Value: 1090 pM
--
Binder: 5-7.13 human-murine chimeric antibody (antibody, human IgG1, kappa, V domains shown, Human IgG1 chimera) VH: QVQLQQPGTELVKPGASVKLSCKASGYTFTSYWVHWVKQRPGQGLEWIGNINPSDGVTNYNEKFKSRATLTVDKSSSTAYMQLSSLTSEDSAVYYCTRDAYGQYYFDDWGQGTTLTVSS VL: DIVMSQSPSSLVVSAGEKVTMSCKSSQSLLNSRTRKNYLAWYQQKPGQSPKLLIYWASVRDSGVPDRFTGSGSGTDFTLTISNVQAEDLAVYYCIQSYYLRTFGGGTILEIKR
Readout type: EC50
Value: 90 pM
--
Binder: 40G5c-hIgG1 (antibody, V domains shown) VH: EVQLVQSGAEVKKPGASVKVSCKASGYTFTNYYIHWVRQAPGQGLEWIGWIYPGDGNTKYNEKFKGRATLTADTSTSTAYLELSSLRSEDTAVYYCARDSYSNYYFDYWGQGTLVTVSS VL: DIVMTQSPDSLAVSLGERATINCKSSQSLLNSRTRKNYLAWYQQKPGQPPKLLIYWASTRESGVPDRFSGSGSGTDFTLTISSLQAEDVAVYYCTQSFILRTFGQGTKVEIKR
Readout type: EC50
Value: 630 pM

Query block: Bench note: what EC50 did 6-35.22 human-murine chimeric antibody (antibody, human IgG1, kappa, V domains shown, Human IgG1 chimera) VH: EVKLVESGGGLVQPGASLSLSCAASGFTFTDYYMSWVRQPPGKALEWLAMSRNKAKGHTIEYSSSVKGRFTISRDNSQSILYLQMNALRAEDSATYYCARDTYESYDGYFDVWGAGTTVIVSS VL: DIVMSQSPSSLAVSAGETVTMSCKSSQSLFNSRSRKNYLAWYQQKPGQTPKLLIYWASIRESGVPDRFTGSGSGTDFTLTISSVQAEDLAVYYCKQSYYLYTFGSGTKLEIKR show?
Result block: 4180 pM
